# System: HS 578T breast
# protocol notes: NCI-60 one-dose screen, 48 h
# setup conditions: 10 µM unless noted
The panel holds about 83,000 compounds, 20% with a hit somewhere; the sample as a whole holds those more often. Calls of active or inactive are those of the source. The calls were made as follows: active = growth percent below 10; inactive = the rest.
Log the outcome using a class from active, inactive

Answered examples (5):
## Input Hi, sorry to bother you, what did the test record for COc1ccc(-c2conc2-n2nc(-c3ccccc3)nc2-c2ccccc2)cc1 ?
## Output inactive

## Input Do the same for CNC(=O)c1c(NC(=O)c2ccc(C(C)C)cc2)sc2c1CCC(=O)C2 please
## Output inactive

## Input Ok, now C=C(COC(C)=O)[C@H]1CC/C(C)=C/CC/C(C)=C/CC[C@@]2(C)O[C@H]2C1
## Output inactive

## Input Same lookup for Cc1cc(-c2ccccc2)on1 , please.
## Output inactive

## Input What about CN(C)CCNC(=O)n1cc(-c2ccncc2)c(-c2cc(O)cc(Cl)c2)n1 ?
## Output inactive

New cases:
## Input Write down the call the test reported for this compound. Item: O=C(NCCN1CCCC1)n1cc(-c2ccncc2)c(-c2cc(O)cc(Cl)c2)n1
## Output inactive

## Input Again, but for C=C(C)[C@@H]1CC[C@]2(C(=O)NS(=O)(=O)c3ccccc3)CC[C@]3(C)[C@H](CC[C@@H]4[C@@]5(C)CC[C@H](OC(=O)NS(=O)(=O)c6ccccc6)C(C)(C)[C@@H]5CC[C@]43C)[C@@H]12
## Output inactive

## Input And the next one, Cc1ccc(C)c(NC(=O)c2sc3c(=O)[nH]cnc3c2C)c1 ?
## Output inactive

## Input Do the same for O/N=C1\c2ccccc2-c2ccc(Br)cc21 please
## Output inactive

## Input What do you get for COC(=O)[C@H](Cc1cn(C)cn1)NC(=O)[C@H](CC(C)C)NC(=O)Nc1cc(C(F)(F)F)cc(C(F)(F)F)c1 ?
## Output active

## Input Next compound up: O=C1Nc2ccccc2/C1=C\c1nc(C2CCN(S(=O)(=O)c3ccc(F)cc3)CC2)n2ccccc12
## Output inactive

## Input What do we get for COc1ccc(-c2cnnn2-c2nonc2-n2cccc2)cc1 ?
## Output active

## Input Proceed to CS(=O)(=O)c1ccc(C(=O)N/N=C/c2cccc3ccccc23)cc1
## Output inactive

## Input Next: CCCCc1nc(Cl)c(C2CC(c3ccc(S(N)(=O)=O)cc3)=NN2c2cc(Cl)cc(Cl)c2)[nH]1 (stereo unspecified)
## Output inactive

## Input And the next one, N=c1nc(N2CCCCC2)cc(N)n1O ?
## Output inactive

## Input And COc1cccc(NC(=O)OC(C)C)c1 ?
## Output inactive

## Input Try this compound too: COc1cc(C2CC(c3ccc(Cl)cc3)=NN2C(C)=O)ccc1Oc1ccnc2cc(Cl)ccc12 (stereo unspecified)
## Output inactive

## Input Oc1ccccc1-c1nnc(COc2ccc(Cl)cc2Cl)o1 , same question.
## Output inactive

## Input Can you check CCCCCCCOc1cccc(/C=C2\N=C3SCCCN3C2=O)c1 next?
## Output inactive

## Input Same question for COc1cc(C2CC(=O)Nc3c2cnn3C)cc(OC)c1OC (stereo unspecified) please.
## Output inactive

* * *

# System: ACHN renal
# protocol notes: NCI-60 one-dose screen, 48 h
# setup conditions: 10 µM unless noted
The panel holds about 83,000 compounds, 20% with a hit somewhere; the sample as a whole holds those more often. Activity calls are given as the source filed them. How the source made its calls: active means growth percent below 10; inactive means the rest.
Answer with one of the outcomes Yes (active), No (inactive)

## Input Tell me the recorded outcome of this test for CNC(=O)OC1C(O[C@H]2C[C@H]3[C@@H]4CC=C5C[C@@H](O)CC[C@]5(C)[C@H]4CC[C@]3(C)[C@H]2[C@H](C)C(=O)CCC(C)C)OCC(O)C1OC1OCC(O)C(O)C1OC(=O)c1ccc(OC)cc1 (stereo partly specified) .
## Output No

## Input Next compound: COC(=O)[C@@H](Cc1c[nH]c2ccccc12)NC(=O)/C=C/c1ccccc1
## Output No

## Input Entry to check: Oc1ccc(-c2nnc3c4[nH]ccc4ncn23)cc1
## Output No

## Input Could you do the same for C=CCOC(=O)C1=C(C)NC2=C(C(=O)CCC2)C1c1ccc(F)cc1 (stereo unspecified) , please?
## Output No

## Input Also need COc1ccc2nc(-c3ccc(-c4noc(-c5ccc(Cl)cc5)n4)cc3)[nH]c2c1 , thanks.
## Output No

## Input Okay, and COc1cc(C)c(Cl)cc1C1=NN(c2ccc(S(N)(=O)=O)cc2)C(/C=C/c2ccccc2)C1 (stereo unspecified) ?
## Output No

## Input Entry CCN(CC)c1ccc2c(cc1=O)[C@@H](NC(C)=O)CCc1cc(OC)c(OC)c(OC)c1-2 please
## Output No

## Input Likewise for Cc1cc(Nc2c3ccccc3nc3ccccc23)ccc1NS(C)(=O)=O ?
## Output Yes

## Input Again, but for COC(=O)c1ccc2c(c1)nc(-c1ccc(Cl)cc1)n2-c1cc(C(C)(C)C)[nH]n1
## Output No

## Input Queued: C=C1C(=O)O[C@H]2[C@H]1CC/C(COC(=O)NCc1c[nH]c3ccc(OC)cc13)=C\CC[C@@]1(C)O[C@@H]21
## Output Yes

## Input Now try CO[C@H](C(=O)[C@@H](O)[C@@H](C)O)[C@@H]1Cc2cc3cc(O[C@H]4C[C@@H](O[C@H]5C[C@@H](O)[C@H](O)C(C)O5)[C@H](O)C(C)O4)c(C)c(O)c3c(O)c2C(=O)[C@H]1O[C@H]1C[C@@H](O[C@H]2C[C@@H](O[C@H]3C[C@](C)(O)C(=O)C(C)O3)[C@@H](O)C(C)O2)[C@H](O)C(C)O1 (stereo partly specified) .
## Output Yes

## Input Proceed to CCCCCCCCCCCCNC(=O)N[C@H](C(=O)N[C@H]1/C=C/CCNC(=O)/C=C/[C@H](C)NC1=O)C(C)C
## Output No

## Input Same read-out for C=C1C(=O)O[C@H]2[C@H]1CC/C(COC(=O)NCc1cccc(OC)c1)=C\CC[C@@]1(C)O[C@@H]21 ?
## Output Yes

## Input Another compound: c1cc(C2CCCCC2)ccc1-c1cnc2nonc2n1
## Output No

## Input Again, but for CCOC(OCC)c1cnc2nc(NC(C)=O)[nH]c(=O)c2n1
## Output No

## Input Next entry: O=C(C(=O)N1CCCC1)c1cn(CCCn2cc(C(=O)C(=O)N3CCCC3)c3cc(Br)ccc32)c2ccc(Br)cc12
## Output No

## Input Cool, now COc1ccccc1/C=N\Nc1ccc([N+](=O)[O-])cn1
## Output No

## Input How about this compound: Nc1ccc(C2=NNC(=O)Cc3cc4c(cc32)OCCO4)cc1Cl
## Output No
